- Tested on: SF-539 CNS
- Test summary: NCI-60 one-dose screen, 48 h (100 = growth as untreated, 0 = no growth, -100 = all killed)
- Reported conditions: 10 µM
Compounds without any hit were thinned out: in the full panel of roughly 83,000, 20% have a hit.
Readout label: growth (%)
Your answer should be a plain number; it is taken to be in %.

Example results:
Exam item: Look at this molecule and give its reported growth. `COc1cccc(COC(=O)Nc2ccccc2)c1OC`
Marked response: 107

Exam item: Okay, and `CC(C)(C)c1cc(O)c(C(C)(C)C)cc1O` ?
Marked response: 86.1

Exam item: Okay, and `Cc1cc(=O)cc(C)n1-c1ccccc1` ?
Marked response: 102

Would you kindly look at the next entry?
Exam item: Look at this molecule and give its reported growth. NC(CSC(c1ccccc1)(c1ccccc1)c1ccccc1)C(=O)O (centres undefined)
Marked response: 10.3
